Tested on: LXRa:RXRa (NR concentration 270 nM, RXRa partner concentration 90 nM)
Experimental details: PBM binding z-score (relative to random genomic background probes); higher = stronger binding; sequences stand for … in GC…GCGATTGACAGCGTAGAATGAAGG
Value kind: PBM binding z-score
One number for each entry.

Sample answers from the record:
| Sequence | System under test | Data value |
| --- | --- | --- |
| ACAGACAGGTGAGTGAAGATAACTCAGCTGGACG | LXRa:RXRa (NR concentration 270 nM, RXRa partner concentration 90 nM) | -0.53 |
| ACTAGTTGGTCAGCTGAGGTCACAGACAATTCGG | LXRa:RXRa (NR concentration 270 nM, RXRa partner concentration 90 nM) | 3.29 |
| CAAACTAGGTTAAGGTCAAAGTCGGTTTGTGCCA | LXRa:RXRa (NR concentration 270 nM, RXRa partner concentration 90 nM) | 5.27 |

Now take the following sequence into account.
Prompt: I'd like to know its PBM binding z-score. The sequence in question is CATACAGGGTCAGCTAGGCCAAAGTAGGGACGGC
Response: 3.04

----------
Tested on: PPARa:RXRa (NR concentration 270 nM, RXRa partner concentration 90 nM)
Experimental details: PBM binding z-score (relative to random genomic background probes); higher = stronger binding; sequences stand for … in GC…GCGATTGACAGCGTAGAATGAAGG
Please note: y applies when PBM binding z-score is 3 or greater, and n applies otherwise.

Study these solved cases before continuing.
| Sequence | Group label |
| --- | --- |
| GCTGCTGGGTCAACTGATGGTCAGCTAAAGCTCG | y |
| TCATATAGGTAAAGGTGACAGTCGAACGATATGA | n |
| CCATACGGGTCAAGGTTATAGCACGGGTGGTACG | y |
| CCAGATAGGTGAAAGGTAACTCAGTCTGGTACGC | y |
| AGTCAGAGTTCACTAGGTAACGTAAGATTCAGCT | y |
| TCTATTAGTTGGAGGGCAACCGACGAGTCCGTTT | n |
| CCTGCTAGGTCAATGGACAGCTAAAGCAGCTCGC | n |
| ACTAGCAGGCAAAGTTTGGGTCACTCAAACAAAG | n |
| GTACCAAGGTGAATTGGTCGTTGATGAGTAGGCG | n |
| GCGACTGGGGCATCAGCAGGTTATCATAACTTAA | n |

Query sequence follows.
Prompt: For this sequence, is measured PBM binding z-score 3 or higher? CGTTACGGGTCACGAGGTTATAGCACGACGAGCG
Response: y

----------
System: RARb homodimer (NR concentration 270 nM)
Experimental details: PBM binding z-score (relative to random genomic background probes); higher = stronger binding; sequences stand for … in GC…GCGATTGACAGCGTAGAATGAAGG
Please note: 1 (yes) applies when PBM binding z-score is 3 or greater, and 0 (no) applies otherwise.

Study these solved cases before continuing.
| Sequence | Group label |
| --- | --- |
| AGAATGAGGTTAAGAGCAGGGAAACAGAATACAT | 0 (no) |
| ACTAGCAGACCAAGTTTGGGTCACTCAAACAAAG | 0 (no) |
| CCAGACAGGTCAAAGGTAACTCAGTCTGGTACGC | 1 (yes) |
| CAAACTTGGTCAAGAGGTCAAAGTCCGCTTCCCG | 1 (yes) |
| CGAAATAGGTCATCCAGGACAGTGAATACATTGA | 1 (yes) |

Prompt: For this sequence, is measured PBM binding z-score 3 or higher? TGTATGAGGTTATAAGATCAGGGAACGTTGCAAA
Response: 0 (no)

Prompt: For this sequence, is measured PBM binding z-score 3 or higher? TCGAGTAGGTTAGTCGGGGCATTAAGCCAACATA
Response: 0 (no)

Prompt: For this sequence, is measured PBM binding z-score 3 or higher? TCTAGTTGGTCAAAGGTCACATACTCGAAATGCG
Response: 1 (yes)

----------
Assignment: determine reported PBM binding z-score for the given sequences.
System: FXR:RXRa (NR concentration 270 nM, RXRa partner concentration 90 nM)
Experimental details: PBM binding z-score (relative to random genomic background probes); higher = stronger binding; sequences stand for … in GC…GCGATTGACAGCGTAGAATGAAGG

Sample answers from the record:
| Sequence | PBM binding z-score |
| --- | --- |
| TAGCCTAGGTCAAATCGGGCCAGTATACGCTATA | 5.06 |
| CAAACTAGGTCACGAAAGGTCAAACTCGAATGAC | 7.61 |

Each sequence below has a reported value. Please supply its PBM binding z-score.
1. ATCTCTAGGTAAAAGTTCACTGAATCCCGAGGAT
2. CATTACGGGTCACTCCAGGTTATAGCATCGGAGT
3. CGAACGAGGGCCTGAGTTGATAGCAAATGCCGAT
4. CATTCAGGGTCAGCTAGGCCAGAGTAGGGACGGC

Response:
1.74
5.62
-0.571
5.24

----------
Tested on: VDR:RXRa (NR concentration 270 nM, RXRa partner concentration 90 nM)
Experimental details: PBM binding z-score (relative to random genomic background probes); higher = stronger binding; sequences stand for … in GC…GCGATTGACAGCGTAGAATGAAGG
Please note: 1 (yes) applies when PBM binding z-score is 0.7 or greater, and 0 (no) applies otherwise.

Study these solved cases before continuing.
| Sequence | System under test | Group label |
| --- | --- | --- |
| CGAGCTAGGTCATCCAGGACAGTGAATACATTGA | VDR:RXRa (NR concentration 270 nM, RXRa partner concentration 90 nM) | 1 (yes) |
| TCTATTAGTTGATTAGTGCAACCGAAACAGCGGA | VDR:RXRa (NR concentration 270 nM, RXRa partner concentration 90 nM) | 1 (yes) |
| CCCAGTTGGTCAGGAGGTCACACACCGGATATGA | VDR:RXRa (NR concentration 270 nM, RXRa partner concentration 90 nM) | 1 (yes) |
| GGAACGAGGGCGAGTTGATAGCAGAGTTTGATGG | VDR:RXRa (NR concentration 270 nM, RXRa partner concentration 90 nM) | 0 (no) |
| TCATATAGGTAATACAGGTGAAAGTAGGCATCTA | VDR:RXRa (NR concentration 270 nM, RXRa partner concentration 90 nM) | 1 (yes) |
| CCAGACCGGTGAGAAGGTAACTCAGCCTCGATTA | VDR:RXRa (NR concentration 270 nM, RXRa partner concentration 90 nM) | 0 (no) |
| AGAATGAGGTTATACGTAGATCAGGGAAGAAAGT | VDR:RXRa (NR concentration 270 nM, RXRa partner concentration 90 nM) | 1 (yes) |
| AGAACGAGGGCAAAGAGTTGATAGCACGGGTGGC | VDR:RXRa (NR concentration 270 nM, RXRa partner concentration 90 nM) | 1 (yes) |
| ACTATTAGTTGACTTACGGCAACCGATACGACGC | VDR:RXRa (NR concentration 270 nM, RXRa partner concentration 90 nM) | 0 (no) |
| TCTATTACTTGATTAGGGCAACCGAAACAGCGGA | VDR:RXRa (NR concentration 270 nM, RXRa partner concentration 90 nM) | 0 (no) |

Prompt: For this sequence, is measured PBM binding z-score 0.7 or higher? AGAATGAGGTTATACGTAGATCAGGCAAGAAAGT
Response: 1 (yes)

Prompt: For this sequence, is measured PBM binding z-score 0.7 or higher? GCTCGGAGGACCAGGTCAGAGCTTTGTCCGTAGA
Response: 0 (no)

Prompt: For this sequence, is measured PBM binding z-score 0.7 or higher? ATATGTAGGTTGAGGGTCATTCAGGTTGGTTCGC
Response: 1 (yes)

Prompt: For this sequence, is measured PBM binding z-score 0.7 or higher? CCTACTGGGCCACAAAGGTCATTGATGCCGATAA
Response: 1 (yes)

Prompt: For this sequence, is measured PBM binding z-score 0.7 or higher? CCTACTGGGCCATCAGGTCATTGAGATCAACGTT
Response: 1 (yes)

----------
Test system: PPARg DBDmut:RXRa IVT, anti-PPARg (DBD mutation: PPARg1 K132A/R137A, NR concentration 270 nM, RXRa partner concentration 90 nM)
Experimental details: PBM binding z-score (relative to random genomic background probes); higher = stronger binding; sequences stand for … in GC…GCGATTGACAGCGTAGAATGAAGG
Value kind: PBM binding z-score
Answers are plain numbers.

| Sequence | PBM binding z-score |
| --- | --- |
| CAGCCTAGGTCAGGGCCGGTATAGGAGGAACGTT | -0.778 |
| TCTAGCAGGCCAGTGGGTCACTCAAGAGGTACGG | -0.249 |
| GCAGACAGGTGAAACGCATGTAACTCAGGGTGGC | -1.74 |

Each sequence below has a reported value. Please supply its PBM binding z-score.
1. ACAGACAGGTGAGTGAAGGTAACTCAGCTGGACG
2. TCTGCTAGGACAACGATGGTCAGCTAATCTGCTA
3. CGTCCAAGGTCAATGCTAGGGCAGTGAAAGCATT

Response:
[0.0951, -0.808, 0.232]
